- test-details: qHTS Assay for Lipid Storage Modulators in Drosophila S3 Cells; further: potency means the concentration at half of the fitted maximal effect
- assay-setup: BODIPY lipid droplet fluorescence, 18-24 h, cells fed with added oleic acid; series mostly up to 46.1 µM
- From the text: NIH Molecular Libraries Probe Production Centers Network [MLPCN] NIH Chemical Genomics Center [NCGC] […] Triacsin C (Sigma-Aldrich T-4540), an inhibitor of long-chain fatty acyl CoA synthetase that blocks synthesis of triglycerides, was used as a positive control for lipid under-storage. […] Fluorescence was detected by excitation of the fluorophores with a 488-nm laser on an Acumen Explorer (TTP Lab Tech). […] Cells were detected using channel 3 (575-640 nm) with 5-um width and 100-um depth filters. […]
Among all 320,000 compounds or so, about 2,100 (0.66%) were called active. Inconclusive results (about 53%) are left out. What follows is part of a selection rich in actives, with near analogues and random picks from the rest.
property-label: Potency

Reference set, count: 8
Cc1cccc(C(CC(=O)N2CCCCC2)c2ccccc2)c1O (configuration not stated): inactive
CCOC(=O)c1c(NC(=O)CSc2nnc(C)c(=O)[nH]2)sc(C)c1-c1ccc(C)cc1: inactive
CC(C)NC(=O)c1[nH]nc2c1CCc1ccccc1-2: inactive
COc1ccc(C(=O)N(CCc2ccccc2)Cc2cccs2)c(OC)c1: 13 µM (active)
O=c1[nH]c2ccccc2nc1C(Cl)c1ccccc1 (configuration not stated): inactive
CSc1nnc(C)c(=O)n1COC(=O)COc1ccc(Cl)cc1: inactive
CC1(C)N=C(/C=N/O)CN1O: 6.51 µM (active)
COc1ccc(-c2noc(CSc3nc4ccccc4c(=O)n3-c3ccc(C)cc3)n2)cc1: inactive

Return reported Potency values for all items listed beneath this line.
1. CC1CCN(Cc2cc(=O)oc3ccc4ccccc4c23)CC1
2. CNC(=O)c1[nH]nc2c1CCc1ccccc1-2
3. O=C(/C=C/c1ccccc1[N+](=O)[O-])NCCN1C(=O)S/C(=C\c2ccc(F)cc2)C1=O
4. O=[N+]([O-])c1cccc(S(=O)(=O)N/N=C/c2ccc(O)cc2)c1
5. COc1ccc(N(C(=O)Cc2cccs2)C(C(=O)NC2CCCC2)c2ccncc2)cc1OC (configuration not stated)
6. Nn1cc(-c2ccccc2)nc1SCC(=O)NCCN1C(=O)CSC1=O
7. COc1cc(/C=C/C(=O)OCC(=O)N2CC3(C)CC2CC(C)(C)C3)ccc1O (configuration not stated)
8. CC(C)(C)c1ccc(/C=C/C(=O)O)s1

Ans.
1: inactive; 2: inactive; 3: inactive; 4: inactive; 5: inactive; 6: inactive; 7: 0.651 µM (active); 8: inactive
